- System: RXF 393 renal
- procedure-summary: NCI tumour cell line growth inhibition, 48 h
property: GI50

>  <compound>
CC(=O)c1c(C)[nH]c(-c2nc3ccc(N4CCN(C)CC4)cc3[nH]2)c1-c1ccccc1

>  <observed-value>
2.84 µM

$$$$
>  <compound>
CSc1ccc2c(c1)C(N1CCN(C)CC1)Cc1ccccc1S2 (stereo not given)

>  <observed-value>
1.54 µM

$$$$
>  <compound>
Cc1nc2ccccc2c(/C=C/c2ccc(Cl)cc2)c1C(=O)/C=C/c1ccc(Cl)cc1

>  <observed-value>
1.52 µM

$$$$
>  <compound>
CCn1c(-c2nonc2N)nc2cncc(C(=O)N3CC[C@H](N)C3)c21

>  <observed-value>
> 6.57 µM

$$$$
>  <compound>
Cn1c(-c2c(N)n(CCCN3CCOCC3)c3nc(C#N)c(C#N)nc23)nc2ccccc21

>  <observed-value>
16.4 µM

$$$$

----------
- Test system: NCI-H23 lung
- procedure-summary: NCI tumour cell line growth inhibition, 48 h
property: TGI

>  <compound>
CC(=O)Oc1ccc(/C=C/C(=O)O[C@@H](C(=O)O)[C@@H](OC(=O)/C=C/c2ccc(OC(C)=O)c(OC(C)=O)c2)C(=O)O)cc1OC(C)=O

>  <observed-value>
> 100 µM

$$$$
>  <compound>
Cc1cc(Cl)nc(N(CCCNc2ccnc3cc(Cl)ccc23)Cc2ccco2)n1

>  <observed-value>
7.68 µM

$$$$
>  <compound>
CCCCCCCCCCCCCC[C@@H](O)[C@H]1CC[C@H]([C@H]2CC[C@H]([C@H](O)CCCCCC[C@@H](O)CC3=C[C@H](C)OC3=O)O2)O1

>  <observed-value>
> 25 µM

$$$$
>  <compound>
CCOC(=O)Cc1nc2c(N)ncnc2n1C1OC(COC(C)=O)C(OC(C)=O)C1OC(C)=O (configuration not stated)

>  <observed-value>
> 100 µM

$$$$
>  <compound>
CCN(CC)c1ccc2cc(C(=O)Nc3ccccn3)c(=N)oc2c1

>  <observed-value>
> 100 µM

$$$$
>  <compound>
O=C1c2ccccc2C(=O)c2c(OCCOCCO)cccc21

>  <observed-value>
> 100 µM

$$$$
>  <compound>
CC1(c2ccc(Cl)cc2)C2C(=O)NC(=O)C1C(=O)NC2=O (configuration not stated)

>  <observed-value>
> 100 µM

$$$$
>  <compound>
N=c1c2c(=N)n3c(nc2nc2n1-c1ccccc1Sc1ccccc1-2)sc1cc(Cl)ccc13

>  <observed-value>
7.02 µM

$$$$
>  <compound>
CC(C)(C)OC(=O)NCCCCC(NC(=O)c1ccccc1)C(N)=O (configuration not stated)

>  <observed-value>
> 100 µM

$$$$
>  <compound>
CC(SC(=O)Nc1ccc(N=Nc2ccccc2)cc1)C(=O)O (configuration not stated)

>  <observed-value>
> 100 µM

$$$$
>  <compound>
Nc1c(Cl)ncnc1NCCCNc1ncnc(Cl)c1N

>  <observed-value>
> 100 µM

$$$$
>  <compound>
c1ccc2c3c([nH]c2c1)C(c1ccc(C2NCCc4c2[nH]c2ccccc42)cc1)NCC3 (configuration not stated)

>  <observed-value>
3.36 µM

$$$$

----------
- Tested on: HOP-62 NSCLC
- procedure-summary: NCI tumour cell line growth inhibition, 48 h

>  <compound>
CN(C)c1cccc(NC2=NCCO2)c1

>  <TGI>
> 100 µM

$$$$
>  <compound>
CCOc1ccc(NC(=O)CC2C(=O)Nc3ccccc3S2(=O)=O)cc1 (stereo not given)

>  <TGI>
> 100 µM

$$$$
>  <compound>
c1cnc(N2CCN(Cc3c[nH]c4ccccc34)CC2)nc1

>  <TGI>
> 100 µM

$$$$
>  <compound>
CC[C@H](C)[C@H](NC(=O)[C@H]1CCCCN1C)C(=O)N(C)[C@H](C[C@@H](OC(C)=O)c1nc(C(=O)N[C@@H](Cc2ccccc2)C[C@H](C)C(=O)O)cs1)C(C)C

>  <TGI>
> 16.5 µM

$$$$
>  <compound>
COc1cccc(/C=C2\COc3ccc(-c4ccccc4)cc3C2=O)c1

>  <TGI>
9.58 µM

$$$$
>  <compound>
CC1(C)CC(=O)C2=C(C1)OC1=C(CC(C)(C)CC1=O)C2c1ccccc1[N+](=O)[O-] (stereo not given)

>  <TGI>
> 100 µM

$$$$
>  <compound>
COc1cc(C2c3cc4c(cc3OC(N3CCNCC3)C2C)OCO4)cc(OC)c1OC (stereo not given)

>  <TGI>
27.3 µM

$$$$
>  <compound>
C[N+]1(CCN[N+]2(C)CCCCC2)CCc2ccccc2C1 (stereo not given)

>  <TGI>
> 100 µM

$$$$
>  <compound>
CCOC(=O)COc1ccc2c(C)cc(=O)oc2c1

>  <TGI>
> 100 µM

$$$$
>  <compound>
O=C(COc1cccc(/C=C2\CSc3ccccc3C2=O)c1)Nc1nccs1

>  <TGI>
23.2 µM

$$$$
